Biological target: T1, human CD39 (full length, on cells) (human, UniProt P49961 1-510)
T1 construct: Recombinant on CHOK1-hCD39 cells or natural on SK-MEL-28, SK-MEL-5 and MOLP-8 cells; the cell line is named under assay; also called hCD39; ENTPD1
T1 sequence: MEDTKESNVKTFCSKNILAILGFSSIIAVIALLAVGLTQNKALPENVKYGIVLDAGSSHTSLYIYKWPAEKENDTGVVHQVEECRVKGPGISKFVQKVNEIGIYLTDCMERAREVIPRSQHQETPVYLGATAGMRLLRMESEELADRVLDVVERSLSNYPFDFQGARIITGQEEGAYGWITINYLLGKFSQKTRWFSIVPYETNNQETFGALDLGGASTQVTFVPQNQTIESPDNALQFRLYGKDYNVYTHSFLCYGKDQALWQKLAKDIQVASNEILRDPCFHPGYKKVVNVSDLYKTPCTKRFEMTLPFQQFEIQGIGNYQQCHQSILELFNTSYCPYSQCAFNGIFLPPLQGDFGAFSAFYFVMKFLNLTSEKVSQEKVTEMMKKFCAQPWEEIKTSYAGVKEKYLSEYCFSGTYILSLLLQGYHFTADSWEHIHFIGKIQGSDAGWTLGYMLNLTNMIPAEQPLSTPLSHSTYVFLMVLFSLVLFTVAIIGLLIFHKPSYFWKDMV
Assay: FACS, MOLP-8 cells
endpoint.name: pEC50
Kindly note that pEC50 refers to -log10 of the concentration in mol/L and answer with the value alone.

Example cases with answers are listed next.
hu23.H3L4 (antibody, V domains shown, humanized c23) VH: QVQLVQSGAEVKKPGASVKLSCKASGYNLKDTFLHWVRQAPGQGLEWIGRIDPANGNIKYDPKFQGRATITADTSASTAYMELSSLRSEDTAVYYCANSPYYYGSGYRIFDVWGQGTTVTVSS VL: EIVLTQSPATLSASPGERVTISCSAFSSVNYMHWYQQKPGQAPRLLIYTTSNLASGIPARFSGSGSGTDYTLTISSMEPEDFAVYYCQQRSTYPFTFGQGTKLEIK    8.79
hu23.H7L5 (antibody, V domains shown, humanized c23) VH: EVQLVQSGAEVKKPGASVKLSCKASGYNLKDTFLHWVKQAPGQGLEWIGRIDPANGNIKYDPKFQGKATLTADTSANTAYLELISLRSEDTAVYYCANSPYYYGSGYRIFDVWGQGTTVTVSS VL: QIVLTQSPATLSLSPGERATLSCSAFSSVNYMHWYQQKPGQAPRLLIYTTSNLASGIPTRFSGSGSGTSYTLTISSLEPEDFAVYYCQQRSTYPFTFGQGTKLEIK    9.60

Ask: Report pEC50 for hu23.H4L4 (antibody, V domains shown, humanized c23) VH: QVQLVQSGAEVKKPGASVKLSCKASGYNLKDTFLHWVKQAPGQGLEWIGRIDPANGNIKYDPKFQGRATLTADTSASTAYLELSSLRSEDTAVYYCANSPYYYGSGYRIFDVWGQGTTVTVSS VL: EIVLTQSPATLSASPGERVTISCSAFSSVNYMHWYQQKPGQAPRLLIYTTSNLASGIPARFSGSGSGTDYTLTISSMEPEDFAVYYCQQRSTYPFTFGQGTKLEIK please.
Reply: 8.99
